Tested on: F1*sub RNA substrate (template-directed ligation)
Test: fraction ligated after 30 min (ligated reads / total reads); higher = more ligase activity; sequences stand for … in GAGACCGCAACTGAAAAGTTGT…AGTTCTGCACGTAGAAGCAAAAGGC
Conditions: 42 °C
Measurement Label: fraction ligated
One number for each entry.

Please review the following examples before continuing.
Chain Sequence | Experimental Target | fraction ligated
ATCACTTGTCGTAAGACACTTGGAGGGTTGA [3d256] | F1*sub RNA substrate (template-directed ligation) | 0.0205
TATCACTTGTCGTAAACATTTGGATGGTTGA [3d2078] | F1*sub RNA substrate (template-directed ligation) | 0.15
ACACTTGTCGTAAGACACTTTGGATGGGTTA [3d44] | F1*sub RNA substrate (template-directed ligation) | 0.217
TATCACTTTCGTAAGCACTTTGATGGGTTGA [3d1533] | F1*sub RNA substrate (template-directed ligation) | 0.784
TTCACTGTCGAAGACACTTTGGATGGGTTGA [3d341] | F1*sub RNA substrate (template-directed ligation) | 0.77

# evaluate next
State its fraction ligated for this sequence: TATCACTGTCGAAGACACTTGGATGGGTTGA [3d1378]
0.812

---

Tested on: F1*sub RNA substrate (template-directed ligation)
Experiment: fraction ligated after 30 min (ligated reads / total reads); higher = more ligase activity
Details: 42 °C
Threshold check on fraction ligated: at or above 0.006 gives MET, strictly below gives NOT MET.

Chain Sequence | Label Value
GAGACCGCAACTGAAAAGTTGTTATCACTTGTCGTAAGACACTTTGGATGGTTGGTTCTGCACGTAGAAGCAAAAGGC [3d2282] | MET

Test whether the sequence GAGACCGCAACTGAAAAGTTGTTATCACTTGTCGTAAGACACTTTGGAGGGTTGGTTCTGCACGTAGAAGCAAAAGGC [3d2280] records fraction ligated of 0.006 or higher.
NOT MET

Test whether the sequence GAGACCGCAACTGAAAAGTTGTTATCACTTGTCGTAGACACTTTGGATGGGTTGGTTCTGCACGTAGAAGCAAAAGGC [3d2058] records fraction ligated of 0.006 or higher.
MET

Test whether the sequence GAGACCGCAACTGAAAAGTTGTTATCACTTGTCGTAAGACACTTGGATGGGTTGGTTCTGCACGTAGAAGCAAAAGGC [3d2254] records fraction ligated of 0.006 or higher.
MET

Test whether the sequence GAGACCGCAACTGAAAAGTTGTTATCACTTGTGTAAGACACTTTGGATGGGTTGGTTCTGCACGTAGAAGCAAAAGGC [3d1809] records fraction ligated of 0.006 or higher.
MET

Test whether the sequence GAGACCGCAACTGAAAAGTTGTTATCACTTGTCGTAAACACTTTGGATGGGTTGGTTCTGCACGTAGAAGCAAAAGGC [3d2104] records fraction ligated of 0.006 or higher.
MET

Test whether the sequence GAGACCGCAACTGAAAAGTTGTTATCCTTGTCGTAAGACACTTTGGATGGGTTGGTTCTGCACGTAGAAGCAAAAGGC [3d1120] records fraction ligated of 0.006 or higher.
NOT MET

---

Tested on: F1*sub RNA substrate (template-directed ligation)
Test: fraction ligated after 30 min (ligated reads / total reads); higher = more ligase activity; sequences stand for … in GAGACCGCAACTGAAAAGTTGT…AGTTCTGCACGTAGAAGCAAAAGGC
Details: 42 °C
Measurement Label: fraction ligated

Chain Sequence | fraction ligated
TATCATTGTCGTAGACACTTTGGATGGGTTGA [2d115] | 0.798
TATCACTTGTCGAAGACCTTGGATGGGTTGA [3d1943] | 0.768
TATCACTTGTCTAAGACACTGGATGGGTTGA [3d1878] | 0.787
ATCATTGTCGTAAGACACTTTGGATGGGTTGA [2d5] | 0.759

// batch mode: one fraction ligated value per listed entry
1. TTCACTTGTCTAAGACACTTTGGATGGTTGA [3d413]
2. TTCACTTGCGTAAGACACTTTGGATGGGTTGA [2d30]
3. TATCACTGCGTAAGACACTTTGGATGGGTTGA [2d130]

1: 0.661; 2: 0.777; 3: 0.851

---

System: F1*sub RNA substrate (template-directed ligation)
Assay: fraction ligated after 30 min (ligated reads / total reads); higher = more ligase activity; sequences stand for … in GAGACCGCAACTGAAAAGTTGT…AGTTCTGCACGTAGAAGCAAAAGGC
Details: 42 °C
Consider the following sequences; for each one, report its fraction ligated.
One number for each entry.

Chain Sequence | fraction ligated
TATCACTTTGTAAGCACTTTGGATGGGTTGA [3d1468] | 0.783
TATCACTGCGTAAGACACTTTGATGGGTTGA [3d1337] | 0.763
TATCACTTTCGTAGACACTTTGATGGGTTGA [3d1513] | 0.783
ATCACTTGTCTAAGACACTTGGATGGGTTGA [3d178] | 0.73
TTCCTTGTCTAAGACACTTTGGATGGGTTGA [3d302] | 0.78
TACACTTGTCGTAAGACTTTGGATGGGTTGA [3d682] | 0.409
TACATTGTCGTAAGACACTTTGGATGGGTTA [3d564] | 0.0607
TATCACTTGTCAGACACTTTGGATGGGTTGA [3d1810] | 0.824
TATCATTGTCGTAAACACTTTGGAGGGTTGA [3d1233] | 0.0387
TATCACTTGTCGTAAACCTTTGGATGGGTTG [3d2073] | 0.793

// batch mode: one fraction ligated value per listed entry
1. TTCACTTGCGTAAGACACTTTGGATGGTTGA [3d384]
2. ATCACTTGTGTAAGACACTTTGATGGGTTGA [3d165]
3. TATCACTTCGTAGACACTTTGGATGGGTTGA [3d1314]
4. TATCACTTGTCGTAAGCCTTTGGATGGTTGA [3d2118]
5. ATCACTTGTCAAGACACTTTGGATGGGTTGA [3d171]
6. TATCCTTGCGTAAGAACTTTGGATGGGTTGA [3d990]
7. TTACTTGTCGTAAGACACTTGGATGGGTTGA [3d291]
8. TATCACTGTCGTAAACCTTTGGATGGGTTGA [3d1399]

1. 0.17
2. 0.453
3. 0.783
4. 0.364
5. 0.749
6. 0.832
7. 0.305
8. 0.806

// batch mode: one fraction ligated value per listed entry
1. TATCATGTCGTAAGACACTTTGATGGGTTGA [3d1134]
2. TATCATTGTCGTAAGACACTTTGGATGGGTTA [2d126]

1: 0.816; 2: 0.67

// batch mode: one fraction ligated value per listed entry
1. TATCACTTGTCGAAGACACTTTGGATGGGTTA [2d219]
2. TATATTGTCGTAAGACACTTTGGATGGGTTG [3d776]
3. TATCACTTTGAAGACACTTTGGATGGGTTGA [3d1465]

1: 0.803; 2: 0.214; 3: 0.819

State its fraction ligated for this sequence: ATCACTTGTCGAAGCACTTTGGATGGGTTGA [3d187]
0.736

---

Consider the following sequences; for each one, report its fraction ligated.
Test system: F1*sub RNA substrate (template-directed ligation)
Experiment: fraction ligated after 30 min (ligated reads / total reads); higher = more ligase activity; sequences stand for … in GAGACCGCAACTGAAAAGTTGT…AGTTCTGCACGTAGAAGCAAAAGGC
Details: 42 °C
One number for each entry.

Chain Sequence | Experimental Target | Result Value
ATCATTGCGTAAGACACTTTGGATGGGTTGA [3d88] | F1*sub RNA substrate (template-directed ligation) | 0.755

// batch mode: one fraction ligated value per listed entry
1. TACTTGTCGTAAGACACTTTGGATGGGTTGA [3d2]
2. TATCCTGTCGTAAACACTTTGGATGGGTTGA [3d956]

0.486
0.796

// batch mode: one fraction ligated value per listed entry
1. TATCACTGTCGTAAGACATTTGGATGGTTGA [3d1437]
2. ATCATTGTCGTAAGAACTTTGGATGGGTTGA [3d95]
3. TATCTTGTCGTAAGACACTTTGGATGGTTGA [3d755]
4. TATCACTTGCGTAAGACACTTTGGAGGTTGA [3d1698]
5. TATCACTGTCGAAGACACTTTGGTGGGTTGA [3d1380]
6. TTCACTTGTCGTAAGACCTTTGGAGGGTTGA [3d473]
7. TATCATTGTCTAAGACACTTTGGATGGTTGA [3d1198]

[0.606, 0.802, 0.155, 0.0604, 0.369, 0.073, 0.169]

// batch mode: one fraction ligated value per listed entry
1. TAACTTGTCGTAAGACACTTTGGATGGGTTG [3d527]
2. TCCTTGTCGTAAGACACTTTGGATGGGTTGA [3d3]

1: 0.153; 2: 0.687

// batch mode: one fraction ligated value per listed entry
1. TATCACTTGTCGAAGACACTTTGGTGGTTGA [3d1971]
2. TTCACTTGTCGTAAGACATTTGGTGGGTTGA [3d479]
3. ATACTTGTCGTAAGAACTTTGGATGGGTTGA [3d57]
4. TATCACTTGTCTAAGACACTTGGATGGGTTA [3d1883]
5. TATCACTGTCGTAAACACTTTGGTGGGTTGA [3d1403]
6. TATATTGTCGTAAGACCTTTGGATGGGTTGA [3d768]

[0.0847, 0.0115, 0.448, 0.701, 0.086, 0.468]

// batch mode: one fraction ligated value per listed entry
1. TATCACTTGTCGTAAGCACTTTGGTGGGTTA [3d2143]
2. TATCACTTTCGTAAGACCTTTGGTGGGTTGA [3d1549]
3. TATCACTTGTCTAAGACCTTTGGATGGGTTA [3d1869]
4. TATCACGTCGTAAGACACTTTGATGGGTTGA [3d1305]
5. TATCACTTGTCGTAGACACTTTGAGGGTTGA [3d2044]
6. TATCACTTGTGTAAACACTTTGATGGGTTGA [3d1748]

0.0888
0.104
0.732
0.777
0.0374
0.831
